# experiment_description: Cytotoxicity against human MCF7 cells measured after 96 hrs by SRB assay
# Type: functional, cell-based
# condition_info: MCF7, 96 h
metric: log10(EC50) (log10 of the value in µM)
Quick note: numbers are log10 of EC50, with µM as the unit.

Consider the molecule CC(=O)O[C@H]1C[C@]2(C)[C@H]3CC=C4[C@@H]5[C@@H](C)[C@H](C)CC[C@]5(C(=O)Nc5ccc6ncccc6c5)CC[C@@]4(C)[C@]3(C)CC[C@H]2C(C)(C)[C@H]1OC(C)=O and give its recorded log10(EC50).
0.81

Consider the molecule CC(=O)O[C@H]1C[C@]2(C)[C@H]3CC=C4[C@@H]5[C@@H](C)[C@H](C)CC[C@]5(C(=O)Nc5cccc6ncccc56)CC[C@@]4(C)[C@]3(C)CC[C@H]2C(C)(C)[C@H]1OC(C)=O and give its recorded log10(EC50).
0.74

Consider the molecule CC(=O)O[C@H]1C[C@]2(C)[C@H]3CC=C4[C@@H]5CC(C)(C)CC[C@]5(C(=O)Nc5ccc6ncccc6c5)CC[C@@]4(C)[C@]3(C)CC[C@H]2C(C)(C)[C@H]1OC(C)=O and give its recorded log10(EC50).
0.76

Consider the molecule CC(=O)O[C@H]1C[C@]2(C)[C@H]3CC=C4[C@@H]5[C@@H](C)[C@H](C)CC[C@]5(C(=O)Nc5ccncc5)CC[C@@]4(C)[C@]3(C)CC[C@H]2C(C)(C)[C@H]1OC(C)=O and give its recorded log10(EC50).
0.95

Consider the molecule CC(=O)O[C@H]1C[C@]2(C)[C@H]3CC=C4[C@@H]5[C@@H](C)[C@H](C)CC[C@]5(C(=O)Nc5cccnc5)CC[C@@]4(C)[C@]3(C)CC[C@H]2C(C)(C)[C@H]1OC(C)=O and give its recorded log10(EC50).
0.54

Consider the molecule CC(=O)O[C@H]1C[C@]2(C)[C@H]3CC=C4[C@@H]5[C@@H](C)[C@H](C)CC[C@]5(C(=O)Nc5ccc6cccnc6c5)CC[C@@]4(C)[C@]3(C)CC[C@H]2C(C)(C)[C@H]1OC(C)=O and give its recorded log10(EC50).
0.20

Consider the molecule CC(=O)O[C@H]1C[C@]2(C)[C@H]3CC=C4[C@@H]5CC(C)(C)CC[C@]5(C(=O)Nc5cnc6ccccc6c5)CC[C@@]4(C)[C@]3(C)CC[C@H]2C(C)(C)[C@H]1OC(C)=O and give its recorded log10(EC50).
0.97

Consider the molecule C[C@H]1[C@H](C)CC[C@]2(C(=O)O)CC[C@]3(C)C(=CC[C@@H]4[C@@]5(C)C[C@H](O)[C@H](O)C(C)(C)[C@@H]5CC[C@]43C)[C@H]12 and give its recorded log10(EC50).
1.46

Consider the molecule CC1(C)CC[C@]2(C(=O)O)CC[C@]3(C)C(=CC[C@@H]4[C@@]5(C)C[C@H](O)[C@H](O)C(C)(C)[C@@H]5CC[C@]43C)[C@@H]2C1 [AUGUSTIC ACID] and give its recorded log10(EC50).
1.40

Consider the molecule CC(=O)O[C@H]1C[C@]2(C)[C@H]3CC=C4[C@@H]5CC(C)(C)CC[C@]5(C(=O)Nc5ccnc6ccccc56)CC[C@@]4(C)[C@]3(C)CC[C@H]2C(C)(C)[C@H]1OC(C)=O and give its recorded log10(EC50).
0.63

Continuing:
Consider the molecule CC(=O)O[C@H]1CC[C@]2(C)[C@H]3CC=C4[C@@H]5[C@@H](C)[C@H](C)CC[C@]5(C(=O)Nc5cccc6ncccc56)CC[C@@]4(C)[C@]3(C)CC[C@H]2C1(C)C and give its recorded log10(EC50).
0.59

Consider the molecule CC(=O)O[C@H]1C[C@]2(C)[C@H]3CC=C4[C@@H]5[C@@H](C)[C@H](C)CC[C@]5(C(=O)O)CC[C@@]4(C)[C@]3(C)CC[C@H]2C(C)(C)[C@H]1OC(C)=O and give its recorded log10(EC50).
1.02

Consider the molecule CC(=O)O[C@H]1C[C@]2(C)[C@H]3CC=C4[C@@H]5CC(C)(C)CC[C@]5(C(=O)Nc5cncc6ccccc56)CC[C@@]4(C)[C@]3(C)CC[C@H]2C(C)(C)[C@H]1OC(C)=O and give its recorded log10(EC50).
0.38

Consider the molecule CC(=O)O[C@H]1C[C@]2(C)[C@H]3CC=C4[C@@H]5CC(C)(C)CC[C@]5(C(=O)Nc5cccc6cccnc56)CC[C@@]4(C)[C@]3(C)CC[C@H]2C(C)(C)[C@H]1OC(C)=O and give its recorded log10(EC50).
1.39

The measured values listed here are drawn from ChEMBL document CHEMBL3865812.
